- TEST SUMMARY: Clearance in Sprague-Dawley rat at 2 mg/kg, iv measured upto 24 hrs by LC/MS/MS analysis
- Assay type: ADME, organism-based
- CONDITION PARAMETERS: in vivo
RESULT TYPE: clearance
Include the unit right after the number.

Need clearance, item Fc1ccc(C2(Cn3cncn3)COC(c3cc4ccc(Cl)cc4s3)=N2)cc1 (stereo unspecified) 69.4 mL/min/kg

###

Target protein (sequence): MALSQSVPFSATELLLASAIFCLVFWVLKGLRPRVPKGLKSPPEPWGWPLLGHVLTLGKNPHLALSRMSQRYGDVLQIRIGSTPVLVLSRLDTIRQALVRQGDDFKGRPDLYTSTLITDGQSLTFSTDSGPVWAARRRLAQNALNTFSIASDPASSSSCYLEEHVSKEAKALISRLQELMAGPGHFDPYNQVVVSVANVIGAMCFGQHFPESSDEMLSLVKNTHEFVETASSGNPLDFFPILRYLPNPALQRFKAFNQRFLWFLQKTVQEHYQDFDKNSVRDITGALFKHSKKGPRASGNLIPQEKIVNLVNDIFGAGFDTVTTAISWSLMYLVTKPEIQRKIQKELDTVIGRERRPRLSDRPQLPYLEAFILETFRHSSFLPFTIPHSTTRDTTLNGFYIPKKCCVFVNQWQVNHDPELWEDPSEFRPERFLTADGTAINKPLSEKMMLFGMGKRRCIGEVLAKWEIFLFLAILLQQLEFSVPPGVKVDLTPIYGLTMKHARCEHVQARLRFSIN
RESULT TYPE: pIC50
The quantity pIC50 is defined as the negative base-10 logarithm of the molar concentration.

>>> df
                                   molecule  result_type  measurement
0  Clc1ccc(C2(Cn3cncn3)COC(c3cc4ccc(Cl)cc4s3)=N2)cc1 (configuration not stated)        pIC50         5.25

Need pIC50, item Fc1ccc(C2(Cn3cncn3)COC(c3cc4ccc(Cl)cc4s3)=N2)cc1 (configuration not stated) 5.35
